// provenance: patent US10508104B2

# EC50 listing for each entry below
molecular target: human APJ receptor (Homo sapiens (Human), UniProt P35414); assay: Intracellular cAMP accumulation assay (APJ hcAMP, HTRF); assay type: cell-based; details: HEK293 cells stably expressing human APJ receptor; inhibition of forskolin-mediated cAMP production; read-out: Human APJ cAMP EC50 Potency range
Sequence (P35414 whole entry): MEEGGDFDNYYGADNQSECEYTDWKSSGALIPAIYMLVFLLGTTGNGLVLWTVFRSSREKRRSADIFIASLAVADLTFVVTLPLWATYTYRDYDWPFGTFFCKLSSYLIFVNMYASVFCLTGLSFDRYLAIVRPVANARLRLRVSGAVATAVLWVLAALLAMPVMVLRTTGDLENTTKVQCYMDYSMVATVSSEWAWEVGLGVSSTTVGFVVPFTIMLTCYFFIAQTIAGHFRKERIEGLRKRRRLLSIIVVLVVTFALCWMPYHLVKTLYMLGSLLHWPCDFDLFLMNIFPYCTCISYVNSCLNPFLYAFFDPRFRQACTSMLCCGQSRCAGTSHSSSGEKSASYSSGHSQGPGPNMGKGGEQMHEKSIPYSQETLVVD

[
  {
    "MOLECULE": "CC[C@@H](c1cccc(C#N)c1)n1c(CC2CC2)nc(=O)c(S(=O)(=O)c2ccc(-c3cccnc3C)cc2)c1O [Example 443]",
    "TESTED_ON": "human APJ receptor (Homo sapiens (Human), UniProt P35414)",
    "EC50": "0.01 to 10 nM"
  }
]

Task: Specify the recorded EC50 for CCOCc1nc(=O)c(S(=O)(=O)c2ccc(-c3ccccc3C(=O)NC)cc2)c(O)n1[C@H]1CCc2ccccc21 [Example 421] , system: human APJ receptor (Homo sapiens (Human), UniProt P35414).
Result: 0.01 to 10 nM

Task: Specify the recorded EC50 for CCCCc1nc(=O)c(S(=O)(=O)[C@H]2CC[C@@H](OCc3ccccc3)CC2)c(O)n1-c1c(OC)cccc1OC [Example 367] , system: human APJ receptor (Homo sapiens (Human), UniProt P35414).
Result: 0.01 to 10 nM

Task: Specify the recorded EC50 for Cc1cnccc1-c1ccc(S(=O)(=O)c2c(O)n([C@H](c3cccc(C#N)c3)C3CC3)c(COC(C)C)nc2=O)cc1 [Example 415] , system: human APJ receptor (Homo sapiens (Human), UniProt P35414).
Result: 0.01 to 10 nM

Task: Specify the recorded EC50 for Cc1c(-c2ccc(S(=O)(=O)c3c(O)n([C@H](c4cccc(C#N)c4)C4CC4)c(CC4CC4)nc3=O)cc2)ccnc1F [Example 498] , system: human APJ receptor (Homo sapiens (Human), UniProt P35414).
Result: 0.01 to 10 nM

Task: Specify the recorded EC50 for CCCCc1nc(=O)c(S(=O)(=O)c2ccc(-c3ccnc4[nH]ccc34)cc2)c(O)n1[C@@H](CC)c1cccc(C#N)c1 [Example 510] , system: human APJ receptor (Homo sapiens (Human), UniProt P35414).
Result: 0.01 to 10 nM

Task: Specify the recorded EC50 for COC[C@@H](c1cccc(C#N)c1)n1c(COC(C)C)nc(=O)c(S(=O)(=O)c2ccc(-c3cnccc3C#N)cc2)c1O [Example 411] , system: human APJ receptor (Homo sapiens (Human), UniProt P35414).
Result: 0.01 to 10 nM

Task: Specify the recorded EC50 for CCCCc1nc(=O)c(S(=O)(=O)c2ccc(C(C)(C)C)cc2)c(O)n1-c1c(OC)cccc1OC [Example 363] , system: human APJ receptor (Homo sapiens (Human), UniProt P35414).
Result: 0.01 to 10 nM

Task: Specify the recorded EC50 for CCCCc1nc(=O)c(S(=O)(=O)c2ccc(-c3ccncc3C)cc2)c(O)n1[C@@H](CC)c1ccc(C#N)c(F)c1 [Example 516] , system: human APJ receptor (Homo sapiens (Human), UniProt P35414).
Result: 0.01 to 10 nM

----------
target: human APJ receptor (Homo sapiens (Human)); test: Intracellular cAMP accumulation assay (APJ hcAMP, HTRF); format: cell-based; details: human APJ, cAMP accumulation; read-out: Human APJ cAMP EC50 Potency range
pEC50: −log10 of the molar value.
MEASURED_ATTRIBUTE: pEC50

[
  {
    "MOLECULE": "CCCCc1nc(=O)c(S(=O)(=O)c2ccc(-c3cccnc3C)cc2)c(O)n1[C@@H](C)c1ccccc1OC [Example 231]",
    "TESTED_ON": "human APJ receptor (Homo sapiens (Human))",
    "RESULT": "8.00 to 11.00"
  },
  {
    "MOLECULE": "COC[C@@H](c1ccccc1)n1c(COC(C)C)nc(=O)c(S(=O)(=O)c2ccc(-c3ccc(F)nc3)c(F)c2)c1O [Example 335]",
    "TESTED_ON": "human APJ receptor (Homo sapiens (Human))",
    "RESULT": "8.00 to 11.00"
  },
  {
    "MOLECULE": "CCCCc1nc(=O)c(S(=O)(=O)c2ccc(-n3cc(Cl)ccc3=O)cc2)c(O)n1[C@@H](COC)c1ccccc1 [Example 288]",
    "TESTED_ON": "human APJ receptor (Homo sapiens (Human))",
    "RESULT": "8.00 to 11.00"
  },
  {
    "MOLECULE": "CCOCc1nc(=O)c(S(=O)(=O)c2ccc(-c3ccc(OC)nc3C)cc2)c(O)n1[C@@H](CC)c1ccccc1 [Example 309]",
    "TESTED_ON": "human APJ receptor (Homo sapiens (Human))",
    "RESULT": "8.00 to 11.00"
  },
  {
    "MOLECULE": "CCCCCc1nc(=O)c(S(=O)(=O)c2ccc(Br)cc2)c(O)n1[C@@H](COC)c1ccccc1 [Example 247]",
    "TESTED_ON": "human APJ receptor (Homo sapiens (Human))",
    "RESULT": "7.00 to 8.00"
  },
  {
    "MOLECULE": "CCOCc1nc(=O)c(S(=O)(=O)c2ccc(-c3ccncc3C)c(F)c2)c(O)n1[C@@H](COC)c1cccc(C#N)c1 [Example 345]",
    "TESTED_ON": "human APJ receptor (Homo sapiens (Human))",
    "RESULT": "8.00 to 11.00"
  }
]

# context switch: different molecule, same pEC50
Task: // Input: CCCCc1nc(O)c(S(=O)(=O)c2ccc(Br)cc2)c(=O)n1[C@H]1CCCc2ccccc21 [Example 235] . Output its pEC50 only.
Result: 7.00 to 8.00

----------
molecular target: UniProt P35414; experiment: Intracellular cAMP accumulation assay (APJ hcAMP, HTRF); type: cell-based; conditions: human APJ, intracellular cAMP accumulation; read-out: Human APJ cAMP EC50 Potency range
pEC50: −log10 of the molar value.
MEASURED_ATTRIBUTE: pEC50

Use these answered entries as a reference point.
[
  {
    "MOLECULE": "CCCCc1nc(=O)c(S(=O)(=O)c2ccc(C)cc2)c(O)n1[C@@H](C)c1ccccc1",
    "pEC50": "6.52 to 7.00"
  },
  {
    "MOLECULE": "CCCCc1nc(=O)c(S(=O)(=O)c2ccc(C(F)(F)F)cn2)c(O)n1-c1c(OC)cccc1OC",
    "pEC50": "8.00 to 11.00"
  },
  {
    "MOLECULE": "CCCCc1nc(=O)c(S(=O)(=O)C2CCN(CC)CC2)c(O)n1-c1c(OC)cccc1OC",
    "pEC50": "8.00 to 11.00"
  },
  {
    "MOLECULE": "CCCCc1nc(=O)c(S(=O)(=O)C2CCN(C(=O)CC(F)(F)F)CC2)c(O)n1-c1c(OC)cccc1OC",
    "pEC50": "8.00 to 11.00"
  }
]

Task: // Input: CCCCc1nc(=O)c(S(=O)(=O)c2ccc(-c3cncc(F)c3)cc2)c(O)n1[C@@H](C)c1cccc(C#N)c1 . Output its pEC50 only.
Result: 8.00 to 11.00

Task: // Input: CCCCc1nc(=O)c(S(=O)(=O)c2ccc(C3CC3)cn2)c(O)n1-c1c(CC)cccc1CC . Output its pEC50 only.
Result: 8.00 to 11.00

Task: // Input: CCCCc1nc(=O)c(S(=O)(=O)c2ccc(-c3ccc(Cl)nc3C)cc2)c(O)n1-c1c(OC)cccc1OC . Output its pEC50 only.
Result: 8.00 to 11.00

Task: // Input: CCCCc1nc(=O)c(S(=O)(=O)c2ccc(-c3cccnc3C)cc2)c(O)n1[C@@H](CC)c1cccc(OC)c1 . Output its pEC50 only.
Result: 8.00 to 11.00

Task: // Input: CCCCc1nc(=O)c(S(=O)(=O)c2ccc(Cl)cc2)c(O)n1-c1c(OC)cccc1OC . Output its pEC50 only.
Result: 8.00 to 11.00

Task: // Input: CCCCc1nc(=O)c(S(=O)(=O)c2ccc(-c3cncc(F)c3)cc2)c(O)n1[C@@H](CC)c1cccc(Cl)c1 . Output its pEC50 only.
Result: 8.00 to 11.00

Task: // Input: CCCCc1nc(=O)c(S(=O)(=O)c2ccc(-c3ccc(F)nc3)cc2)c(O)n1-c1c(OC)cccc1OC . Output its pEC50 only.
Result: 8.00 to 11.00

Task: // Input: CCCCc1nc(=O)c(S(=O)(=O)c2ccc(-c3cccnc3C)cc2)c(O)n1C(c1ccccc1)C1CC1 (stereo not drawn) . Output its pEC50 only.
Result: 8.00 to 11.00

Task: // Input: CCCCc1nc(O)c(S(=O)(=O)c2ccc(Br)cc2)c(=O)n1C(C)c1cccnc1 (stereo not drawn) . Output its pEC50 only.
Result: 6.52 to 7.00

Task: // Input: CCCCc1nc(=O)c(S(=O)(=O)c2ccc(Br)cc2)c(O)n1[C@@H](CC)c1cccc(OC)c1 . Output its pEC50 only.
Result: 7.00 to 8.00

Task: // Input: CCCCc1nc(=O)c(S(=O)(=O)c2ccc(-c3cnc(F)cc3C)cc2)c(O)n1[C@H]1CCc2ccccc21 . Output its pEC50 only.
Result: 8.00 to 11.00
